Provide the recorded GI50 for the entries that follow.
Tested on: SNB-75
protocol_summary: NCI tumour cell line growth inhibition, 48 h
Activity calls are given as the source filed them. No stated cut-off is given here; in the data, active = GI50 up to about 1.1 µM and inactive = higher.

Task: GET /values?readout=GI50&item= c1ccc(-c2nnc(CCCCCCCCc3nnc(-c4ccccc4)o3)o2)cc1
Result: > 100 µM (inactive)

Task: Try this molecule too: O=C1C(Cl)=C(Oc2ccc([N+](=O)[O-])cc2)C(=O)c2c(O)ccc(O)c21
Result: > 100 µM (inactive)

Task: Okay, and COc1ccc(/C=C2\C[C@H]3[C@@H]4CC=C5C[C@@H](OC(C)=O)CC[C@]5(C)[C@H]4CC[C@]3(C)\C2=N\O)cc1OC ?
Result: > 100 µM (inactive)

Task: Next up: O=C1OC(c2ccccc2)=N/C1=C\c1cccc2ccccc12
Result: > 100 µM (inactive)

Task: Field entry: Cn1c(=O)c2c(nc3n(Cc4ccccc4)c(=O)c(NCCCBr)cn23)n(C)c1=O
Result: 24.8 µM (inactive)

Task: Proceed to Oc1nc2c(c(-c3ccccc3Cl)n1)COC/C2=C\c1ccccc1Cl
Result: 38.9 µM (inactive)

Task: Subsequent entry: CCOC(=O)c1nc2ccc(C(F)(F)F)cc2nc1Nc1ccc(OC)cc1
Result: 93.5 µM (inactive)

Task: COC(=O)[C@@H]1[C@H](OC(C)=O)CCC2[C@@]3(C[C@@H](c4ccoc4)O[C@@H]3OC)[C@H](C)CC[C@]21C(=O)OC (stereo not given in full) ?
Result: > 25 µM (inactive)

Task: Try this molecule too: Clc1ccc(CSCCc2ccncc2)cc1Cl
Result: 22.9 µM (inactive)

Task: Please do the same for COC(=O)C(C#CCCCCC#CC(NC(=O)OCc1ccccc1)(C(=O)OC)C(F)(F)F)(NC(=O)OCc1ccccc1)C(F)(F)F (stereo not given) as well.
Result: > 100 µM (inactive)

Task: Another molecule to check: Cc1cccc(Cn2c3c(c4cc(O)ccc42)C(=O)c2ccccc2C3=O)c1
Result: 1.97 µM (inactive)

Task: Now give it for CC#C[C@@]1(O)CCCCC1O (stereo not given in full) too.
Result: 66.8 µM (inactive)

Task: Same read-out for CCC/N=C/c1c(O)c(O)c(C(C)C)c2cc(C)c(-c3c(C)cc4c(C(C)C)c(O)c(O)c(/C=N/CCC)c4c3O)c(O)c12 ?
Result: 8.79 µM (inactive)

Task: Let us now turn to c1ccc2[nH]c3nc4ccccc4c-3cc2c1
Result: 2.1 µM (inactive)

Task: Another molecule to look at: COc1ccccc1/C=C/c1c(N)ncnc1Nc1cccc(Cl)c1
Result: 9.53 µM (inactive)

Task: Same lookup for CCCCNC(=S)Nc1nc(C(=O)NNC(=S)Nc2ccccc2)cs1 , please.
Result: 38.3 µM (inactive)

Task: S=c1sc2c(n1-c1ccccc1)N=CNC2S (stereo not given) ?
Result: 56.6 µM (inactive)

Task: Let us now turn to NC(=O)NC12CC3CC(CC(F)(C3)C1)C2
Result: 87.9 µM (inactive)

Task: Continue with CSCCC(NOC(=O)Cc1ccccc1)P(=O)(O)c1ccccc1 (stereo not given)
Result: > 100 µM (inactive)

Task: And for Cc1ccc(C[P+]2(c3ccccc3)CCCCC2)cc1.[O-][Cl+3]([O-])([O-])[O-] ?
Result: 24.4 µM (inactive)

Task: Lookup CCNCCNC(=O)c1ccc(Br)cc1
Result: 63.4 µM (inactive)

Task: And the next one, CSc1nc(SC)c2ncn(C3CC(Oc4ccc(C)cc4)C(COc4ccc(C)cc4)O3)c2n1 (stereo not given) ?
Result: 26.5 µM (inactive)

Task: Same again, this time with O=C1C[C@@H]2[C@@H](CCC23CC3)N1
Result: > 100 µM (inactive)

Task: Proceed to C1CNCCNCCNCCN1
Result: > 100 µM (inactive)

Task: Also, C/C(=N\N(C)C)C(CN(C)C)C(c1ccccc1)c1c(O)c2ccccc2oc1=O (stereo not given) please.
Result: 30.3 µM (inactive)

###

System: SNB-19
protocol_summary: NCI tumour cell line growth inhibition, 48 h
Activity calls are given as the source filed them. Rule as the data show it: active = GI50 up to about 1.1 µM and inactive = higher.
Choose the fitting class; nothing outside label 1 for active, label 0 for inactive is accepted.

Task: Lab log entry: NC1=NC(=O)C(CC(=O)Nc2ccc([N+](=O)[O-])cc2[N+](=O)[O-])S1 (stereo not given) — outcome as called in the assay?
Result: label 0

Task: Check CC(=O)NC(CCCCNC(=O)OC(C)(C)C)C(=O)O (stereo not given) too.
Result: label 0

Task: Next: [O-][S+]1c2ccccc2N=C(c2cccs2)CC1c1ccccc1O (stereo not given)
Result: label 0

Task: Next record, please: CCN(CC)CCCNc1c2cc(OC)ccc2nc2cccc([N+](=O)[O-])c12
Result: label 1

Task: Okay, and O=C(O)CN1CCN2CCOCCOCCN(CC1)CCN(CC(=O)O)CC2 ?
Result: label 0

Task: // next record CCCCNC(=S)Nc1nc(C(=O)NNC(=S)Nc2ccccc2)cs1
Result: label 0

Task: Can you handle CCc1c(O)nc(Nc2nc3ccccc3[nH]2)[nH]c1=O next?
Result: label 0

Task: Lookup COC(=O)C1=C([C@H]2COC(C)(C)O2)[C@H]2C[C@@H]1[C@@H]1OC(C)(C)O[C@@H]12
Result: label 0

Task: // repeat for CSCCC(NOC(=O)Cc1ccccc1)P(=O)(O)c1ccccc1 (stereo not given) and report
Result: label 0

Task: Ok, now CC/C(Cl)=N\OC(=O)Nc1ccc(F)c(Cl)c1
Result: label 0

###

Test system: SF-295
protocol_summary: NCI tumour cell line growth inhibition, 48 h
Calls of active or inactive are those of the source. Cut-off read from the data, not from the text of the source: active = GI50 up to about 1.1 µM and inactive = higher. *1 amine or outer side, *2 acyl side, *3 side chain or, on linkers, in order; H or OH if unused. Where a SMILES comes first, the peptide text is derived from it. Bridges are numbered along the chain shown (N, C = ends). [ ]: non-standard residue; d: D form. X36 = CC[C@H](C)[C@@H](N[*:1])[C@@H](O)CC(=O)O[C@H](C(=O)[C@H](C)C(=O)[*:2])C(C)C; NMeY = CN[C@@H](Cc1ccc(O)cc1)C(=O)O
Response enum: active, inactive

Task: For C=C(c1ccc2[nH]c(NC(=O)OC)nc2c1)c1cccs1 , which call appears in the assay record?
Result: active

Task: Same again, this time with CCc1ccccc1NC(=O)C(C#N)C1=C(Cl)C(=O)c2ccccc2C1=O (stereo not drawn)
Result: inactive

Task: Could you do the same for COc1ccc(CNc2nc(NCc3ccc(OC)cc3)nc(NC3CCCCC3)n2)cc1 , please?
Result: inactive

Task: Request: OCC1c2ccccc2-n2nc(-c3ccccc3)c(O)c21 (stereo not drawn)
Result: inactive

Task: What do you get for CC[C@H](C)[C@H]1NC(=O)[C@@H](N)[C@@H](C)OC(=O)[C@H](Cc2ccc(OC)cc2)N(C)C(=O)[C@@H]2CCCN2C(=O)[C@H](CC(C)C)NC(=O)[C@@H](C)C(=O)[C@H](C(C)C)OC(=O)C[C@@H]1O (H-T[X36]LP[NMeY](Me); ester 1-C) ?
Result: inactive

Task: Ok, now Oc1c(Br)cc(/C=C/c2cccc(/C=C/c3cc(Br)c(O)c(Br)c3)n2)cc1Br
Result: inactive

Task: How about this molecule: O=C1C(Cl)=C(Oc2ccc([N+](=O)[O-])cc2)C(=O)c2c(O)ccc(O)c21
Result: inactive

Task: Same question, c1ccc2c(CNCCCN3CCN(CCCNCc4cccc5ccccc45)CC3)cccc2c1 this time
Result: inactive

Task: How about this molecule: COc1ccc(/N=C/C=C/Nc2ccc(OC)cc2)cc1
Result: inactive

Task: Queued: O=C1c2ccccc2-c2c1c1ccccc1c(=O)n2Cc1ccco1
Result: inactive

Task: And the next one, O=C1OC2CC=CC1C2 (stereo not drawn) ?
Result: inactive

Task: Param item: C[Si](C)(C)C1(Sc2ccccc2)SCCCS1
Result: inactive

Task: Next molecule: C[N+](C)(CCO)CCN1c2ccccc2Sc2ccccc21
Result: inactive

###

Tested on: SK-OV-3
protocol_summary: NCI tumour cell line growth inhibition, 48 h
Calls of active or inactive are those of the source. No stated cut-off is given here; in the data, active = GI50 up to about 1.1 µM and inactive = higher.
Consider the following compounds; for each one, report its GI50.

Task: # lookup: GI50 of C=CCN1C[C@H](C)N([C@H](c2ccc(C(=O)N(CC)CCO)cc2)c2cccc(OC)c2)C[C@H]1C
Result: 71.8 µM (inactive)

Task: Entry Cn1c2ccccc2c(=S)c2ccccc21 please
Result: > 100 µM (inactive)

Task: Would you kindly repeat that for CO[C@H]1[C@@H](O)[C@@H](O)O[C@@H](O[C@H]2CC[C@@]3(C)[C@H](CC[C@@H]4[C@@H]3[C@H](O)C[C@]3(C)[C@@H](C5=CC(=O)OC5)CC[C@]43O)C2)[C@@H]1O ?
Result: 0.248 µM (active)

Task: Entry CC[C@]12C=CCN3CC[C@@]4(c5ccc(OC)cc5N(C)[C@H]4[C@@](O)(C(=O)OC)[C@@H]1OC(C)=O)[C@@H]32 please
Result: > 200 µM (inactive)

Task: And what about the compound NC(=O)NOCC1NC(=O)NC1=O (stereo not given) ?
Result: > 100 µM (inactive)

Task: For COc1ccc(NC(=O)CC(=O)n2nc(-c3ccccc3)c(/N=N/c3ccccc3C(=O)O)c2-c2ccccc2)cc1 then?
Result: 15.9 µM (inactive)

Task: Please answer likewise for N=C1/C(=C/c2ccco2)C(=O)N=C2SC=NN12
Result: > 100 µM (inactive)

Task: Please answer likewise for CCOC(=O)c1cc2c(OC(C)=O)ccc(OC(C)=O)c2s1
Result: 9.4 µM (inactive)

Task: Then this compound: CC(C)(Oc1ccc(Cl)cc1)C(=O)N(C(=O)N1CCCCC1)c1ccccc1
Result: 19.8 µM (inactive)

Task: Let us now turn to COc1cc2c(cc1OC)C1C(=O)c3c(O)cc4c(c3OC1CO2)C=CC(C)(C)O4 (stereo not given)
Result: 22.3 µM (inactive)
